Hey, just so you know, these numbers are from PubChem BioAssay (NCI).

test system: IGROV1 ovarian; experiment: NCI-60 one-dose screen, 48 h; details: 10 µM unless noted
Compounds without any hit were thinned out: in the full panel of roughly 83,000, 20% have a hit. The source made the active and inactive calls. The calls were made as follows: active = growth percent below 10; inactive = the rest.
Outcome codes: label 1 for active, label 0 for inactive

compound: CCCCN1CCN(c2ccc3nc(-c4ccc5nc(-c6cc(OC)c(OC)c(OC)c6)[nH]c5c4)[nH]c3c2)CC1
target-desc: IGROV1 ovarian
category: label 0
--
compound: O=c1oc2ccc(Cl)cc2cc1-c1cs/c(=N/N=C\c2ccc(Cl)cc2)n1/N=C/c1ccc(Cl)cc1
target-desc: IGROV1 ovarian
category: label 0
--
compound: O=C(Nc1ccccn1)[C@H](O)[C@@H](O)C(=O)N1CCOCC1
target-desc: IGROV1 ovarian
category: label 0
--
compound: CCCc1cc(=O)oc2c3c(c4c(c12)OC(C)(C)C=C4)O[C@@H](C)[C@H](C)C3=O
target-desc: IGROV1 ovarian
category: label 0
--
compound: CC1=CC(=O)C(C(C)C)=CC1=Nc1cc(Br)c(O)c(Br)c1
target-desc: IGROV1 ovarian
category: label 0
--
compound: O=C1NC(=S)S/C1=C\N1N=C(c2ccc(Cl)cc2)CC1c1ccc(F)cc1 (stereo unspecified)
target-desc: IGROV1 ovarian
category: label 0
--
compound: COc1cc(C(=O)/C=C/c2c(C(F)(F)F)nc3ccccn23)cc(OC)c1OC
target-desc: IGROV1 ovarian
category: label 1
--
compound: O=C1Nc2ccccc2/C1=N/N=C/c1ccc(OC2OC(CO)C(O)C(O)C2O)cc1 (stereo unspecified)
target-desc: IGROV1 ovarian
category: label 0
--
compound: NC(=S)N/N=C/C(=O)O
target-desc: IGROV1 ovarian
category: label 1
--
compound: Cc1c2c(cn1Cc1ccccc1)CCc1cn(C)nc1-2
target-desc: IGROV1 ovarian
category: label 0
--
compound: COc1ccc(O)c(-c2cc(-c3ccccc3)c(C#N)c(=O)[nH]2)c1
target-desc: IGROV1 ovarian
category: label 0

###

tested on: HCC-2998 colon; experiment: NCI-60 one-dose screen, 48 h; details: 10 µM unless noted
This is part of a sample that, as a whole, favours compounds with a hit. Of some 83,000 tested, about 20% had one in any assay. Active and inactive are the calls of the source. How the source made its calls: active means growth percent below 10; inactive means the rest.
Outcome codes: active, inactive

structure-smiles-string: CSc1ncc(C)c(Nc2ccc(Cl)cc2)n1
category: inactive
--
structure-smiles-string: O=C(C[C@@]1(O)C(=O)Nc2c(Cl)ccc(Cl)c21)c1ccc(C2CC2)cc1
category: active
--
structure-smiles-string: O=C(c1ccccc1)c1ccc(Cl)c([N+](=O)[O-])c1
category: inactive
--
structure-smiles-string: COc1cc2c(cc1OC)-c1ccc3cc4c(cc3c1N(CCCN1CCCCC1)C2)OCO4
category: inactive
--
structure-smiles-string: COc1ccc(/C=N/NC(=O)Cn2c(-c3ccc(S(C)(=O)=O)cc3)nc3cc(Cl)ccc32)cc1
category: inactive
--
structure-smiles-string: NC(N)=N/N=C(/c1ccccc1)c1ccc(N)cc1
category: inactive
--
structure-smiles-string: O=[N+]([O-])c1ccc(-c2cc3c(Nc4ccc(OCc5cccc(Cl)c5)c(Cl)c4)ncnc3s2)cc1
category: inactive
--
structure-smiles-string: Clc1ccc(/C=C/c2nc(Nc3ccc(Cl)cc3)c3ccccc3n2)cc1
category: inactive
--
structure-smiles-string: CN(C)c1ccc(/C=C2\C=C(c3ccccc3)N(CCc3ccccc3)C2=O)cc1
category: inactive
--
structure-smiles-string: COc1ccc(-c2cc(-c3cc(OC)ccc3O)[nH]c(=O)c2C#N)cc1
category: inactive
--
structure-smiles-string: C[C@@H]1C(=O)N(C[C@H](Cc2ccccc2)N(Cc2ccccc2)Cc2ccccc2)[C@]1(Cc1ccccc1)C(=O)OC(C)(C)C
category: inactive
--
structure-smiles-string: O=[N+]([O-])c1ccc(-c2cc3c(Nc4ccc(Sc5nc6ccccc6s5)c(Cl)c4)ncnc3s2)cc1
category: inactive
--
structure-smiles-string: CCOC(=O)c1c(C)nc2c(c1N)/C(=C/c1cc(OC)c(OC)c(OC)c1)C(=O)N2c1ccc(OC)cc1
category: inactive
--
structure-smiles-string: N#Cc1c(N)n2c(nc1=Nc1ccc(Cl)cc1)sc1cc(Cl)ccc12
category: inactive
--
structure-smiles-string: CSc1nc2sc3cc(Cl)ccc3n2c(=N)c1C#N
category: inactive
--
structure-smiles-string: CCNCCNc1cc(-c2ccc(F)cc2)c(C#N)c2nc3ccccc3n12
category: inactive
--
structure-smiles-string: O=C(CCl)N1c2cccc3cccc(c23)N(C(=O)CCl)C1c1cn(-c2ccccc2)nc1-c1cccc([N+](=O)[O-])c1
category: inactive
--
structure-smiles-string: Cc1ccc(NSc2ccccc2[N+](=O)[O-])cc1
category: inactive

###

Test system: SNB-19 CNS
Test: NCI-60 one-dose screen, 48 h (100 = growth as untreated, 0 = no growth, -100 = all killed)
Settings: 10 µM unless noted
Procedure: Growth inhibition of the SNB-19 human tumor cell line is measured as a screen for anti-cancer activity. Cells are grown in 96 well plates and exposed to the test compound for 48 hours. Compounds are tested at a single concentration, which is 10^-5 M for most compounds. The reported endpoint is percent growth (GI% or GIPRCNT), where numbers from 0 - 100% represent growth inhibition, and numbers from -100% - 0 represent cell death. For example, a value of 40 represents 60% growth inhibition. […]
Compounds without any hit were thinned out: in the full panel of roughly 83,000, 20% have a hit.

compound: O=c1ccn(C2OC(F)(CO)C(O)C2F)c(=O)[nH]1 (centres undefined)
growth (%): 105

compound: Cc1cc(Cc2cc(C)cc(C(C)(C)C)c2O)c(O)c(C(C)(C)C)c1
growth (%): 48

compound: COc1ccc(-c2nc3ccccn3c2/C=C/C(=O)c2cc(OC)c(OC)c(OC)c2)cc1
growth (%): 72.4

compound: C/C(=N\NC(N)=S)c1nc2ccc(Cl)cc2[nH]1
growth (%): 57.6

compound: CCOc1ccc2nc(-c3cccc(OCC(=O)NC(C)C)c3)nc(Nc3ccc(-c4cn[nH]c4)cc3)c2c1
growth (%): 19.4

compound: C=C1C(=O)O[C@H]2[C@H]1CC/C(COC(=O)/C=C\C(=O)NCc1ccc(Cn3c(=O)sn(-c4ccc(C#N)cc4)c3=O)cc1)=C\CC[C@@]1(C)O[C@@H]21
growth (%): -65

compound: CCC(=O)OC1=C(C)SC2=NC(c3ccc(Cl)c(Cl)c3)=CC(c3cc(OC)c(OC)c(OC)c3)N21 (centres undefined)
growth (%): 94.5

compound: CC(C)(C)Nc1c(-c2c3ccccc3cc3ccccc23)nc2ccccn12
growth (%): 74.1

compound: Nc1ccc(CCCCc2ccccc2)c(Cl)c1
growth (%): 94.6

compound: CCN(CC)CC(O)CNc1c2ccc(Cl)cc2nc2ccc(OC)cc12 (centres undefined)
growth (%): 57.3

compound: CCOC(=O)c1sc2ccc(NCc3nc[nH]c3C)cc2c1NC(=O)c1cc(OC)c(OC)c(OC)c1
growth (%): 93

compound: COc1cc(-c2cc(-c3ccc(Nc4nc(Nc5ccccc5)nc(Nc5ccc(Cl)cc5)n4)cc3)nc(N)n2)cc(OC)c1OC
growth (%): 79.6

compound: CC1(C)C(=O)/C(=C\c2cccnc2)C[C@]2(C)[C@H]3CC=C4[C@@H]5C[C@@](C)(C(=O)O)CC[C@]5(C)CC[C@@]4(C)[C@]3(C)CC[C@@H]12
growth (%): 96.8

compound: COc1ccc(OC)c(/C=C2\COc3ccc(O)cc3C2=O)c1
growth (%): 84.5

compound: Cc1c(Cl)cccc1NS(=O)(=O)c1ccccc1
growth (%): 106

compound: CCOC(=O)c1ccc(NC(=O)CCCN(CC)CC)cc1
growth (%): 111

compound: CN(CCCCCCCCNc1ccnc2ccccc12)Cc1ccc(-c2ccc(-c3ccc(C#N)cc3)s2)cc1
growth (%): -14.6

compound: CCCCCCCCN(CCCCCCCC)C(=N)c1ccnc2ccccc12
growth (%): -70.8

compound: O=C(/C=C/C12c3ccccc3C(c3ccccc31)C1C(=O)NC(=O)C12)c1ccc(Cl)cc1 (centres undefined)
growth (%): 17.3

compound: C=C1C(=O)O[C@H]2[C@H]1CC/C(COC(=O)NCc1ccc(Cn3c(=O)sn(CCCCl)c3=O)cc1)=C\CC[C@@]1(C)O[C@@H]21
growth (%): 76.1

compound: CCOC(=O)c1c(C)[nH]c(C(=O)CCC(=O)OC)c1C
growth (%): 106

compound: O=S(=O)(NCCNc1cc(-c2c(-c3cccc(O)c3)nc3sccn23)ccn1)c1ccc(Cl)cc1
growth (%): 72.7

compound: COc1ccc(/C(C)=N/NS(=O)(=O)c2ccc(C)cc2)cc1OC
growth (%): 107

compound: NC(=S)N/N=C/C(=O)O
growth (%): 108

compound: Oc1[nH]c2ccccc2c1/C=c1/cc2c(c(-c3ccc(F)cc3)n1)=Nc1ccccc1-2
growth (%): 25.2

compound: C[C@@H]1CC[C@@H]2[C@@H]1[C@H](OC(=O)c1ccc3ccccc3c1)[C@]1(C3CCCCC3)C[C@@H](OC(=O)CO)[C@@]2(C)O1
growth (%): 84.1

compound: CN(C)CCC(O)(Cc1ccccc1)c1ccccc1 (centres undefined)
growth (%): 112

compound: C/C(Cc1ccc(Cl)cc1)=C(/c1ccc(Cl)cc1)c1ccc(OCCN(C)C)cc1
growth (%): 69.4

compound: CCCCCCCCc1cc[n+](CC(=O)c2ccc(Br)cc2)cc1
growth (%): 35.3
